target-entity: T1, hPD-1 Avi-Tag Biotin (AcroBiosystems PD1-H82E4) (human, UniProt Q15116 25-167, biotin on Avi-Tag)
T1 construct: bought; also called human PD-1
T1 sequence (Q15116 25-167 limits assumed): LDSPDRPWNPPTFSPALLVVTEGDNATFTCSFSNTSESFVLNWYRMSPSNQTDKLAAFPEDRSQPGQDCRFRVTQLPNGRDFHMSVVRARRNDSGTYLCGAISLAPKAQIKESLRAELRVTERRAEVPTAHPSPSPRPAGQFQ
experiment-summary: SPR, Ab captured, PD-1 analyte
readout-name: koff (s⁻¹)
# number only, unit s⁻¹ dropped from output

Would you please look over these solved cases?
z2-XVT458 (antibody, IgG1, V domains shown, full hIgG1; also called XVT458-z2; GH + T071V) VH: QVQLVQSGAEVKKPGASVKVSCKASGYTFTNFYIHWVRQAPGQGLEWMGSIYPNYGDTAYNQKFKDRVTMTVDTSTSTAYMELRSLRSDDTAVYYCARGYSYAMDYWGQGTTVTVSS VL: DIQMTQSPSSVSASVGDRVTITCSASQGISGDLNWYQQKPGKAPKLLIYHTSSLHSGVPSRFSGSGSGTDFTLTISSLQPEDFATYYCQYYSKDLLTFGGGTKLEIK
0.00127
z1-XVT458 (antibody, human IgG1, kappa, V domains shown, hIgG1; also called GH + V067A) VH: QVQLVQSGAEVKKPGASVKVSCKASGYTFTNFYIHWVRQAPGQGLEWMGSIYPNYGDTAYNQKFKDRATMTTDTSTSTAYMELRSLRSDDTAVYYCARGYSYAMDYWGQGTTVTVSS VL: DIQMTQSPSSVSASVGDRVTITCSASQGISGDLNWYQQKPGKAPKLLIYHTSSLHSGVPSRFSGSGSGTDFTLTISSLQPEDFATYYCQYYSKDLLTFGGGTKLEIKR
0.00146
z5-XVT458 (antibody, human IgG1, kappa, V domains shown, hIgG1; numbering as for z1; also called GH + V067A + T073K) VH: QVQLVQSGAEVKKPGASVKVSCKASGYTFTNFYIHWVRQAPGQGLEWMGSIYPNYGDTAYNQKFKDRATMTTDKSTSTAYMELRSLRSDDTAVYYCARGYSYAMDYWGQGTTVTVSS VL: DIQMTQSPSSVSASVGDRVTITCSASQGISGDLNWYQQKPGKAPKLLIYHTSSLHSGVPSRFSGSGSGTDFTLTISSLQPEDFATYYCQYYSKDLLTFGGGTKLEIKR
0.00145

GET /value?item= z6-XVT458 (antibody, human IgG1, kappa, V domains shown, hIgG1; numbering as for z1; also called GH + T071V + T073K) VH: QVQLVQSGAEVKKPGASVKVSCKASGYTFTNFYIHWVRQAPGQGLEWMGSIYPNYGDTAYNQKFKDRVTMTVDKSTSTAYMELRSLRSDDTAVYYCARGYSYAMDYWGQGTTVTVSS VL: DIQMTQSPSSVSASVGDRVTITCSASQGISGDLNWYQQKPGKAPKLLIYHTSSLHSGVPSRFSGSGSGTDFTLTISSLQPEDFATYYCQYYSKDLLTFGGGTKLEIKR &field=koff returns 0.00133

In plain terms, z3-XVT458 (antibody, human IgG1, kappa, V domains shown, hIgG1; numbering as for z1; also called GH + T073K) VH: QVQLVQSGAEVKKPGASVKVSCKASGYTFTNFYIHWVRQAPGQGLEWMGSIYPNYGDTAYNQKFKDRVTMTTDKSTSTAYMELRSLRSDDTAVYYCARGYSYAMDYWGQGTTVTVSS VL: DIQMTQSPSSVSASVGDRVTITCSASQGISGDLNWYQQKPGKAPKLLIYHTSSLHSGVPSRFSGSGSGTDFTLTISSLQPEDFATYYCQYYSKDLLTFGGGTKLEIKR has a documented koff of 0.00142

Per the record, z7-XVT458 (antibody, human IgG1, kappa, V domains shown, hIgG1; numbering as for z1; also called GH + V067A + T071V + T073K) VH: QVQLVQSGAEVKKPGASVKVSCKASGYTFTNFYIHWVRQAPGQGLEWMGSIYPNYGDTAYNQKFKDRATMTVDKSTSTAYMELRSLRSDDTAVYYCARGYSYAMDYWGQGTTVTVSS VL: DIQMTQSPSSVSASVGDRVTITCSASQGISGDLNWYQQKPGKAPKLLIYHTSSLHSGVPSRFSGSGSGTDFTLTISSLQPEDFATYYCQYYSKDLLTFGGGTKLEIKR has koff of 0.00136

Value of measured koff for the entry z4-XVT458 (antibody, human IgG1, kappa, V domains shown, hIgG1; numbering as for z1; also called GH + V067A + T071V) VH: QVQLVQSGAEVKKPGASVKVSCKASGYTFTNFYIHWVRQAPGQGLEWMGSIYPNYGDTAYNQKFKDRATMTVDTSTSTAYMELRSLRSDDTAVYYCARGYSYAMDYWGQGTTVTVSS VL: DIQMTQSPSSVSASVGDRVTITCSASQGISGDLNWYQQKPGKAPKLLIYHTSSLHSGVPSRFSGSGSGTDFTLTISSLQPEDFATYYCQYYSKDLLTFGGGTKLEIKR : 0.00131

Record summary for z0-XVT458 (antibody, human IgG1, kappa, V domains shown, hIgG1; also called GH + uVL) VH: QVQLVQSGAEVKKPGASVKVSCKASGYTFTNFYIHWVRQAPGQGLEWMGSIYPNYGDTAYNQKFKDRVTMTTDTSTSTAYMELRSLRSDDTAVYYCARGYSYAMDYWGQGTTVTVSS VL: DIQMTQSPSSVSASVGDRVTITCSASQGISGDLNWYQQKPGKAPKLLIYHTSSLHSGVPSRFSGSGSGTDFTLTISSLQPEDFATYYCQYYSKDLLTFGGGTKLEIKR : reported koff = 0.00147

src = patent US20260207767A1
